Measured residual activity, listed per entry.
- System Name: TAOK1 (human) (UniProt Q7L7X3)
- Sequence (Q7L7X3 whole entry, looked up): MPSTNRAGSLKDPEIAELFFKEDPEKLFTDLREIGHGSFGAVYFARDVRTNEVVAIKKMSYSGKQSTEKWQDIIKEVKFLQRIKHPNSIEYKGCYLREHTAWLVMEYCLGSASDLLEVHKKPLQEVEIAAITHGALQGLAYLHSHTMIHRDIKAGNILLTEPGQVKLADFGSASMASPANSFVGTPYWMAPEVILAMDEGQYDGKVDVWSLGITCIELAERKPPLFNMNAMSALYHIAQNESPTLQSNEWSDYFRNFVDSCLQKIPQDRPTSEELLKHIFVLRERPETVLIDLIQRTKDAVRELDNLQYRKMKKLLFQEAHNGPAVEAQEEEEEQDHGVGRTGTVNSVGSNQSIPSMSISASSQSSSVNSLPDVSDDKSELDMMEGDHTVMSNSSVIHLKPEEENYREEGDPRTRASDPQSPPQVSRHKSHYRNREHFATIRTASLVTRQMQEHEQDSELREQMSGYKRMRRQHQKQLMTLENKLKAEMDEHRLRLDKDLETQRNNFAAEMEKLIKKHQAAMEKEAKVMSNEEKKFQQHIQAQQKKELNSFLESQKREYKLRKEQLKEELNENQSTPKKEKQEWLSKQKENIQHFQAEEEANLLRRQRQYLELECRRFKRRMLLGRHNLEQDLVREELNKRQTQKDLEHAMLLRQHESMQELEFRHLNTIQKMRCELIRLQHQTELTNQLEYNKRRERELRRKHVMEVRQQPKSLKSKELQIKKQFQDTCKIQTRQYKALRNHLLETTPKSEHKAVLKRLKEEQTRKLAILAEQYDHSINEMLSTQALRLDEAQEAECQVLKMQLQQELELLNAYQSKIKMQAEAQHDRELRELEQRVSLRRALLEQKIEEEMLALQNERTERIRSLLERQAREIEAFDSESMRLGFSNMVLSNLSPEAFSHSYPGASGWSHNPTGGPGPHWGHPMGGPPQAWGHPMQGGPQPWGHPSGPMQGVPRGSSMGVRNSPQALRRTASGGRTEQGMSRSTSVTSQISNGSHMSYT
- Test Details: radiometric filter-binding kinase assay
- Experimental Context: compound 1.0 µM

Field: example entries. Status: answers known.
C=CC(=O)N1CCC[C@@H](n2nc(-c3ccc(Oc4ccccc4)cc3)c3c(N)ncnc32)C1: 119%
Cc1nc(-c2ccc(OCC(C)C)c(C#N)c2)sc1C(=O)O: 105%
O=C(Nc1nc2cc(C(F)(F)F)cc(NC3CC3)n2n1)c1cccnc1: 105%
Cc1ccc(-c2ccc3c(ccc4sc5c(c43)NC[C@@H](C)NC5=O)n2)cn1: 98%
Cc1ccc(Sc2cnc(Nc3cccc(Br)n3)s2)cc1C(=O)N1CCN(C(=O)CN)CC1: 33%
Cc1cc(NC(=O)c2cccc(NC(=O)/C=C/CN(C)C)c2)ccc1Nc1nccc(-c2cccnc2)n1: 97%

Proceed to the following item.
QUERY: Please give the measured residual activity for this compound: `N#Cc1c(C2CCNCC2)cc(-c2c(O)cccc2OCC2CC2)nc1N`
RESULT: 77%

----------
List of residual activity values.
- System Name: PDGFRA (human) (UniProt P16234)
- Sequence (P16234 whole entry, looked up): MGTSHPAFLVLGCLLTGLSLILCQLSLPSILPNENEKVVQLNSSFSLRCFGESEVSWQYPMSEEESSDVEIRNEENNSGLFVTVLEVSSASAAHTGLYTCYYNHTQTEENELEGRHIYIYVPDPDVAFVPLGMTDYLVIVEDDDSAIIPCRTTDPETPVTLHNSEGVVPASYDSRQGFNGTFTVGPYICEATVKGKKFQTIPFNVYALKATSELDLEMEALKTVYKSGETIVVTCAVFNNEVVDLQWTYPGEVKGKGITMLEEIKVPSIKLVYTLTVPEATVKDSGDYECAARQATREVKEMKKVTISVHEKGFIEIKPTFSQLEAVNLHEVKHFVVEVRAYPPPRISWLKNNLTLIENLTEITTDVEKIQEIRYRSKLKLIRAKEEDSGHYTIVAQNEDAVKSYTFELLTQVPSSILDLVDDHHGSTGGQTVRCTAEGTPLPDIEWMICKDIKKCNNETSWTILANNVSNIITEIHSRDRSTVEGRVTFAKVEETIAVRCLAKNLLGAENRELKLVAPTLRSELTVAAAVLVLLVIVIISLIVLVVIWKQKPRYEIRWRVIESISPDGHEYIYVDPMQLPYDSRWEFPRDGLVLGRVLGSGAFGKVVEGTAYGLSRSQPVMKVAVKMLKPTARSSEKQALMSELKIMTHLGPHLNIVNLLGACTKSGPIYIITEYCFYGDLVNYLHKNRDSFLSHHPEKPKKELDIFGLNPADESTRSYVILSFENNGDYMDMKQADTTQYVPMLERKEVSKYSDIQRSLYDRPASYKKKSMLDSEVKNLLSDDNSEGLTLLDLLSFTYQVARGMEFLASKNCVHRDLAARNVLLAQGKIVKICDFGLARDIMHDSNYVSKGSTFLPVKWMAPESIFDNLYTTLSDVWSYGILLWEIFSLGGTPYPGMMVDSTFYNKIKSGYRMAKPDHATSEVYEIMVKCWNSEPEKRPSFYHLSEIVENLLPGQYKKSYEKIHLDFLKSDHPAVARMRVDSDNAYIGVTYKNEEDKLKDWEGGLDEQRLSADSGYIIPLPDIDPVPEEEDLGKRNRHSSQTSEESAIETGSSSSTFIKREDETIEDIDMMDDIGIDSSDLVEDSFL
- Test Details: radiometric filter-binding kinase assay
- Experimental Context: compound 10.0 µM
Mention the unit after the number when you answer.

Use the examples below as a reference point.
COC(=O)/C=C/C(=O)OC: 101%
Nc1cccc2c1CN(C1CCC(=O)NC1=O)C2=O (configuration not stated): 82%

QUERY: Could you share which residual activity value was measured for `COc1cc(C(=O)N2CCOCC2)c(F)cc1Nc1ncc(C(F)(F)F)c(NC2CC2)n1` ?
RESULT: 76%

QUERY: # lookup: residual activity of `NCC(=O)Nc1ccc(-n2nc(C(F)(F)F)cc2-c2ccc3c(ccc4ccccc43)c2)cc1`
RESULT: 98%

QUERY: Any idea what residual activity was measured for `CCNc1nc(Nc2cc(F)c(C(=O)N3CCOCC3)cc2OC)ncc1C(F)(F)F` ?
RESULT: 61%

QUERY: Would you kindly share the measured residual activity for `CCn1c(-c2nonc2N)nc2cncc(CNC3CCNCC3)c21` ?
RESULT: 99%

QUERY: Need residual activity, item CC1=C(CO)C(=O)O[C@@H]([C@@H](C)[C@H]2CC[C@H]3[C@@H]4C[C@H]5O[C@]56[C@@H](O)C=CC(=O)[C@]6(C)C4CC[C@]23C)C1 (some centres not stated)
RESULT: 121%

----------
- System Name: PAK6 (human) (UniProt Q9NQU5)
- Sequence (Q9NQU5 whole entry, looked up): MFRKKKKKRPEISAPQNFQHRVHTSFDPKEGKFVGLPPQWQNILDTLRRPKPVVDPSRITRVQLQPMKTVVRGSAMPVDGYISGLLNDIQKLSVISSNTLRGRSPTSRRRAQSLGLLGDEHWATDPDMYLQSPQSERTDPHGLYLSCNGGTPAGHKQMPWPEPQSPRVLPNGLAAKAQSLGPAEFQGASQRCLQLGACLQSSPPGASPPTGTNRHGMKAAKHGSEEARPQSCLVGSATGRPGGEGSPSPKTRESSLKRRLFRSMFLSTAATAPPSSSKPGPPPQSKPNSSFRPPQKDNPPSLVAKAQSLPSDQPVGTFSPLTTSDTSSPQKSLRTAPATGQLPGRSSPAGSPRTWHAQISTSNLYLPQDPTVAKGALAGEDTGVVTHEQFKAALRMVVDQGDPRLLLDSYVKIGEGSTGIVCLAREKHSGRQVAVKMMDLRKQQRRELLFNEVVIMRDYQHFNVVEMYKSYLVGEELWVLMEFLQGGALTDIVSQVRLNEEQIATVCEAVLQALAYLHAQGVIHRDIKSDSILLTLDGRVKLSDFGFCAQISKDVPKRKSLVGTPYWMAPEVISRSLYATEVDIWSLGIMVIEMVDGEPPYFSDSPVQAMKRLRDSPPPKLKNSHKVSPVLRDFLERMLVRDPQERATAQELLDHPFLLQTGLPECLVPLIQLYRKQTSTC
- Test Details: radiometric filter-binding kinase assay
- Experimental Context: compound 0.01 µM
Value Kind: residual activity
Answer format: number, then unit.

COc1ccc(N(C(=O)Nc2c(C)cccc2C)c2cc(Nc3ccc(N4CCN(C)CC4)cc3)ncn2)c(OC)c1: 94%
CNc1nc(-c2ccc3c(N)n[nH]c3c2)cc(N2C[C@@H](C(=O)NC3CCCCC3)CC[C@H]2C)n1: 108%
COc1cc(O)c2c(c1)[C@H]1OC1C[C@H](O)[C@H](O)C(=O)/C=C\C[C@H](C)OC2=O (stereo partly specified): 92%
C/C(=C1/C(=O)Nc2ccc(NC(N)=O)cc21)c1ccc[nH]1: 102%
O=C(Nc1nc2cc(C(F)(F)F)cc(NC3CC3)n2n1)c1cccnc1: 100%

QUERY: I'd like to know its residual activity. The molecule in question is CNC(=O)C1[C@H]2O[C@@](C)([C@@H]1N)n1c3ccccc3c3c4c(c5c6ccccc6n2c5c31)C(=O)NC4 (stereo partly specified)
RESULT: 29%

----------
- System Name: CHEK2 (human) (UniProt O96017)
- Sequence (O96017 whole entry, looked up): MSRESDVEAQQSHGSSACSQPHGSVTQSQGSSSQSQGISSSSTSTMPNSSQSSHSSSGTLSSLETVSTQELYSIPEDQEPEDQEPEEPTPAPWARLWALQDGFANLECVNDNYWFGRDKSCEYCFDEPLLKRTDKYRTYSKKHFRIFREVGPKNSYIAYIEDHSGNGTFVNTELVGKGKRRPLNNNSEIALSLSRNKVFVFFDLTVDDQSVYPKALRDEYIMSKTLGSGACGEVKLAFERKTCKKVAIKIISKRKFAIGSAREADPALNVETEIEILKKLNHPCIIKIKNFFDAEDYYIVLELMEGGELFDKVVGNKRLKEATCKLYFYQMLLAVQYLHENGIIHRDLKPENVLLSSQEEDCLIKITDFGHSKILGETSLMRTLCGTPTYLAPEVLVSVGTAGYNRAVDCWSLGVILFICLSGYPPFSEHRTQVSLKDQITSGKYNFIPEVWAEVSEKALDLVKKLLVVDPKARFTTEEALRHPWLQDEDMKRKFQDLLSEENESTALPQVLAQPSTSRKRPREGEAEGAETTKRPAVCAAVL
- Test Details: radiometric filter-binding kinase assay
- Experimental Context: compound 10.0 µM
residual activity values, listed per item
Number in %, nothing else.

COc1cc(C(=O)N2CCOCC2)c(F)cc1Nc1ncc(C(F)(F)F)c(NC2CC2)n1: 3
O=C(Nc1ccccc1-c1cn2c(CN3CCNCC3)csc2n1)c1cnc2ccccc2n1: 54
COc1cc2ncn(-c3cc(OCc4ccccc4S(C)(=O)=O)c(C#N)s3)c2cc1OC: 19
O=C(O)c1cc(N=Nc2ccc(S(=O)(=O)Nc3ccccn3)cc2)ccc1O: 103
c1ccc2c(-c3cnn4cc(-c5ccc(N6CCNCC6)cc5)cnc34)ccnc2c1: 59

QUERY: Can you share its residual activity? I mean this molecule: `N#Cc1c(C2CCNCC2)cc(-c2c(O)cccc2OCC2CC2)nc1N`
RESULT: 34

QUERY: Param item = `O=C(N[C@@H](COc1ccc2[nH]c(=O)[nH]c2c1)c1ccccc1)c1cccn(Cc2ccc(F)c(F)c2)c1=O` ; retrieve measured residual activity.
RESULT: 100

QUERY: Can you look up the measured residual activity of `Cn1nc(Nc2ccc(F)cc2)c2c(N)ncnc21` for me?
RESULT: 96

QUERY: # lookup: residual activity of CC(C)C[C@H](NC(=O)CNC(=O)c1cc(Cl)ccc1Cl)B1OC(=O)CC(CC(=O)O)(C(=O)O)O1 (stereo not given in full)
RESULT: 89

QUERY: Suppose we examine the molecule `O=S(=O)(c1ccc(F)c2nonc12)N1CCN(c2ncc(C(F)(F)F)cc2Cl)CC1` ; what residual activity value has been reported?
RESULT: 93

----------
# residual activity per record follows
- System Name: MINK1 (human)
- Test Details: radiometric filter-binding kinase assay
- Experimental Context: compound 1.0 µM

Here are 5 compounds together with their reported answers.
Cc1ccc(-c2ccc3c(ccc4sc5c(c43)NC[C@@H](C)NC5=O)n2)cn1: 97%
COc1cc(O)c2c(c1)/C=C/C[C@H](O)[C@H](O)C(=O)/C=C\C[C@H](C)OC2=O: 83%
O=C(O)c1ccc(-c2c[nH]c3ncc(-c4ccccc4)cc23)cc1C1CCCC1: 19%
O=c1c(O)c(-c2ccc(O)c(O)c2)oc2cc(O)c(O)c(O)c12: 56%
O=C(Nc1ccccc1-c1cn2c(CN3CCNCC3)csc2n1)c1cnc2ccccc2n1: 91%

QUERY: Data request, read-out residual activity, for `COc1ccc(-n2ncc3cnc(Nc4cc(OC)c(OC)c(OCCCN5CCN(C)CC5)c4)nc32)cc1`
RESULT: 57%

QUERY: # lookup: residual activity of `COc1cc2ncn(-c3cc(OCc4ccccc4S(C)(=O)=O)c(C#N)s3)c2cc1OC`
RESULT: 5%

----------
- System Name: UniProt P43405
- Test Details: radiometric filter-binding kinase assay
- Experimental Context: compound 0.1 µM
Catalogue of residual activity readings, one per entry.
Numeric only. Scale: %

Solved cases below.
COc1cc(O)c2c(c1)/C=C/C[C@H](O)[C@H](O)C(=O)/C=C\C[C@H](C)OC2=O: 88
C=CC(=O)N1CCC[C@@H](n2nc(-c3ccc(Oc4ccccc4)cc3)c3c(N)ncnc32)C1: 90

QUERY: What residual activity value was documented for this compound, `O=C(NCCCNc1nc(Nc2cccc(CN3CCOCC3)c2)ncc1C1CC1)C1CCC1` ?
RESULT: 109

QUERY: Please look up its residual activity: `Cc1ccc(Sc2cnc(Nc3cccc(Br)n3)s2)cc1C(=O)N1CCN(C(=O)CN)CC1`
RESULT: 82

QUERY: What measured residual activity goes with `CCn1c(-c2nonc2N)nc2cncc(CNC3CCNCC3)c21` ?
RESULT: 106

QUERY: # lookup: residual activity of `NC1(c2ccc(-c3nc4ccn5c(=O)[nH]nc5c4cc3-c3ccccc3)cc2)CCC1`
RESULT: 116

QUERY: Look at this compound and give its reported residual activity. `O=C(O)c1ccc(-c2c[nH]c3ncc(-c4ccccc4)cc23)cc1C1CCCC1`
RESULT: 99

QUERY: residual activity for `COc1ccc(N(C(=O)Nc2c(C)cccc2C)c2cc(Nc3ccc(N4CCN(C)CC4)cc3)ncn2)c(OC)c1` ?
RESULT: 104

QUERY: Find the recorded residual activity belonging to `O=C(Nc1nc2cc(C(F)(F)F)cc(NC3CC3)n2n1)c1cccnc1` and report it.
RESULT: 99

----------
- System Name: PIM1 (human) (UniProt P11309)
- Sequence (P11309 whole entry, looked up): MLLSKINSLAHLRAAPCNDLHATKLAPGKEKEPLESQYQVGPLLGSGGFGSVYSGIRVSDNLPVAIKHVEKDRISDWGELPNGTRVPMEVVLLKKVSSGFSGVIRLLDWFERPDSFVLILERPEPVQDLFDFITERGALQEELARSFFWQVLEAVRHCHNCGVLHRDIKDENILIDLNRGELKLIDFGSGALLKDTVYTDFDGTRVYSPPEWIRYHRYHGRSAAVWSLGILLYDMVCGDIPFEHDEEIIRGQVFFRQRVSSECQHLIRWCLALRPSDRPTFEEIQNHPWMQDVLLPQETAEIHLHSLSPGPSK
- Test Details: radiometric filter-binding kinase assay
- Experimental Context: compound 1.0 µM
Value Kind: residual activity (%)
Respond numerically; units are % and should not be typed.

Solved cases below.
O=C(O)c1ccc(-c2c[nH]c3ncc(-c4ccccc4)cc23)cc1C1CCCC1: 62
Oc1ccc2ccccc2c1SSc1c(O)ccc2ccccc12: 37

# ---- query compound ----
QUERY: # get_value(readout='residual activity', item= `Cc1nc(-c2ccc(OCC(C)C)c(C#N)c2)sc1C(=O)O` )
RESULT: 83

----------
- System Name: MAPK11 (human) (UniProt Q15759)
- Sequence (Q15759 whole entry, looked up): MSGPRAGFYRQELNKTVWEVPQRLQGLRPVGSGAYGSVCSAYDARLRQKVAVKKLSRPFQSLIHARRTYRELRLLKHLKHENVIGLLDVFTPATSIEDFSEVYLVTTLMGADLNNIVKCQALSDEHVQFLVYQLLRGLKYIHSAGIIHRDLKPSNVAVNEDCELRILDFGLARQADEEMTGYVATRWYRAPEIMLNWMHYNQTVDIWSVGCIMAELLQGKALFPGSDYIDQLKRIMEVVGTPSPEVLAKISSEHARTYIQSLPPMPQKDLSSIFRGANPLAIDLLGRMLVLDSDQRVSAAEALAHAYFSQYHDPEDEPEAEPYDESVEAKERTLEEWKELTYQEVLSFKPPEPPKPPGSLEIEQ
- Test Details: radiometric filter-binding kinase assay
- Experimental Context: compound 0.1 µM
Value Kind: residual activity (%)
Just the number in %, nothing appended.

QUERY: What value of residual activity on MAPK11 (human) (UniProt Q15759) does `O=C(NCCCNc1nc(Nc2cccc(CN3CCOCC3)c2)ncc1C1CC1)C1CCC1` have?
RESULT: 103

QUERY: Any idea what residual activity came out for `CN(C)C/C=C/C(=O)Nc1cccc(C(=O)Nc2ccc(Nc3nccc(-c4cccnc4)n3)cc2)c1` on MAPK11 (human) (UniProt Q15759)?
RESULT: 96

QUERY: // lookup residual activity | system=MAPK11 (human) (UniProt Q15759) | key= CC1=C(CO)C(=O)O[C@@H]([C@@H](C)[C@H]2CC[C@H]3[C@@H]4C[C@H]5O[C@]56[C@@H](O)C=CC(=O)[C@]6(C)C4CC[C@]23C)C1 (stereo partly drawn)
RESULT: 121

QUERY: Lookup: residual activity / MAPK11 (human) (UniProt Q15759) / `NC1(c2ccc(-c3nc4ccn5c(=O)[nH]nc5c4cc3-c3ccccc3)cc2)CCC1`
RESULT: 99

QUERY: Return residual activity measured with MAPK11 (human) (UniProt Q15759) given this molecule: COc1cc(O)c2c(c1)[C@H]1OC1C[C@H](O)[C@H](O)C(=O)/C=C\C[C@H](C)OC2=O (stereo partly drawn)
RESULT: 93

QUERY: Short answer please: residual activity, MAPK11 (human) (UniProt Q15759), entry `O=C(Nc1nc2cc(C(F)(F)F)cc(NC3CC3)n2n1)c1cccnc1`
RESULT: 121

QUERY: Find residual activity (MAPK11 (human) (UniProt Q15759)) for the entry `COc1ccc(N(C(=O)Nc2c(C)cccc2C)c2cc(Nc3ccc(N4CCN(C)CC4)cc3)ncn2)c(OC)c1`
RESULT: 42

QUERY: Report residual activity for `Cc1ccc(-c2ccc3c(ccc4sc5c(c43)NC[C@@H](C)NC5=O)n2)cn1` tested on MAPK11 (human) (UniProt Q15759).
RESULT: 118
